// provenance: patent US11986540B2

- measurement_notes: Phase 1a pharmacokinetics in healthy volunteers, single IV administration
- Type: in vivo, human
- condition_set: human, plasma, intravenous, 0.025 mg/kg, in 220 ml 5% dextrose, 60-min infusion; read-out: Vz
readout: Vd

CC1(C)C(=CC=C2CCCC(C=CC3=[N+](CCCCS(=O)(=O)[O-])c4ccc(S(=O)(=O)O)cc4C3(C)C)=C2Oc2ccc(CC(NC(=O)c3ccc(NCc4cnc5nc(N)[nH]c(=O)c5n4)cc3)C(=O)O)cc2)N(CCCCS(=O)(=O)O)c2ccc(S(=O)(=O)O)cc21 (stereo not shown) :: 17.1 L

* * *

- measurement_notes: Repeat once-weekly IV dose toxicokinetics in rats
- Type: in vivo
- condition_set: male, rat, in vivo, iv, 3.1 mg/kg, rats M, 3.1 mg/kg once-weekly IV, Day 13; read-out: Vss
readout: Vd (L/kg)

CC1(C)C(=CC=C2CCCC(C=CC3=[N+](CCCCS(=O)(=O)[O-])c4ccc(S(=O)(=O)O)cc4C3(C)C)=C2Oc2ccc(CC(NC(=O)c3ccc(NCc4cnc5nc(N)[nH]c(=O)c5n4)cc3)C(=O)O)cc2)N(CCCCS(=O)(=O)O)c2ccc(S(=O)(=O)O)cc21 (stereo not shown) [pafolacianine] :: 1.5

* * *

- measurement_notes: Phase 1a pharmacokinetics in healthy volunteers, single IV administration
- Type: in vivo, human
- condition_set: human, plasma, intravenous, 0.05 mg/kg, in 220 ml 5% dextrose, 60-min infusion; read-out: AUC0-inf
readout: AUC(0-inf) (ng·h/mL)

CC1(C)C(=CC=C2CCCC(C=CC3=[N+](CCCCS(=O)(=O)[O-])c4ccc(S(=O)(=O)O)cc4C3(C)C)=C2Oc2ccc(CC(NC(=O)c3ccc(NCc4cnc5nc(N)[nH]c(=O)c5n4)cc3)C(=O)O)cc2)N(CCCCS(=O)(=O)O)c2ccc(S(=O)(=O)O)cc21 (stereo not shown) :: 258

* * *

- measurement_notes: Single IV dose toxicokinetics in dogs
- Type: in vivo
- condition_set: dog, in vivo; female dogs, 9.3 mg/kg single IV, Study Day 0
readout: AUC(0-t) (ng·h/mL)

CC1(C)C(=CC=C2CCCC(C=CC3=[N+](CCCCS(=O)(=O)[O-])c4ccc(S(=O)(=O)O)cc4C3(C)C)=C2Oc2ccc(CC(NC(=O)c3ccc(NCc4cnc5nc(N)[nH]c(=O)c5n4)cc3)C(=O)O)cc2)N(CCCCS(=O)(=O)O)c2ccc(S(=O)(=O)O)cc21 (stereo not shown) [pafolacianine] :: 17600

* * *

- measurement_notes: Repeat once-weekly IV dose toxicokinetics in rats
- Type: in vivo
- condition_set: female, rat, in vivo, iv, 30.8 mg/kg, rats F, 30.8 mg/kg once-weekly IV, Day 0
readout: C0 (µg/mL)

CC1(C)C(=CC=C2CCCC(C=CC3=[N+](CCCCS(=O)(=O)[O-])c4ccc(S(=O)(=O)O)cc4C3(C)C)=C2Oc2ccc(CC(NC(=O)c3ccc(NCc4cnc5nc(N)[nH]c(=O)c5n4)cc3)C(=O)O)cc2)N(CCCCS(=O)(=O)O)c2ccc(S(=O)(=O)O)cc21 (stereo not shown) :: 194

* * *

- measurement_notes: Repeat once-weekly IV dose toxicokinetics in rats
- Assay type: in vivo
- condition_set: female, rat, in vivo, iv, 3.1 mg/kg, rats F, 3.1 mg/kg once-weekly IV, Day 13
readout: clearance (mL/min/kg)

CC1(C)C(=CC=C2CCCC(C=CC3=[N+](CCCCS(=O)(=O)[O-])c4ccc(S(=O)(=O)O)cc4C3(C)C)=C2Oc2ccc(CC(NC(=O)c3ccc(NCc4cnc5nc(N)[nH]c(=O)c5n4)cc3)C(=O)O)cc2)N(CCCCS(=O)(=O)O)c2ccc(S(=O)(=O)O)cc21 (stereo not shown) [pafolacianine] :: 3.1
